System: 168753-222-R-J1-PDC complex spheroid viability
Assay: Anticancer human tumor 168753-222-R-J1-PDC patient-derived bladder carcinoma cell line growth inhibition [CLK]; active means viability on the fitted dose curve at most 10% of control; inactive means the rest
Conditions: second compound 0.316 µM; first compound 10 µM
Source text: A high-throughput screen of multi-cell type tumor spheroids was designed to identify active combinations of […] and targeted small molecules. Complex spheroids include a stromal component modeled by human endothelial cells (HUVEC) and fibroblasts modeled by human mesenchymal stem cells (MSCs). […] Compounds. […] If the clinical Cmax for an agent had not been determined, the highest concentration tested was 10 microM. […]
Hello, when you answer, please use one of the following outcomes: active, inactive

O=c1[nH]cc(F)c(=O)[nH]1 + CN1CCN(c2cc(C(=O)Nc3cc4cc(-c5cnn(C)c5)ccc4cn3)ccn2)CC1
active
Nc1ccn(C2OC(CO)C(O)C2(F)F)c(=O)n1 (stereo not given) + CN1CCN(c2cc(C(=O)Nc3cc4cc(-c5cnn(C)c5)ccc4cn3)ccn2)CC1
inactive
COc1ccc([C@@H](O)c2cc(-c3ncnc4cc(N5CCOCC5)ccc34)c(F)cc2Cl)nn1 + CN1CCN(c2cc(C(=O)Nc3cc4cc(-c5cnn(C)c5)ccc4cn3)ccn2)CC1
active

Could you now consider this next compound?
Called result for COc1ccc([C@@H](O)c2cc(-c3ncnc4cc(N5CCOCC5)ccc34)c(F)cc2Cl)nn1 + CNC(=O)c1ccc(Nc2nc(OC3CCCC3)c3c(-c4ccc5nc(C)oc5c4)c[nH]c3n2)c(OC)c1 inactive

----------
tested on: 168753-222-R-J1-PDC complex spheroid viability; experiment: Anticancer human tumor 168753-222-R-J1-PDC cell line growth inhibition [CLK]; settings: curve of first compound; second compound 0.316 µM;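 further: viability measured after seven days of drug exposure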
Below: a set of entries, each annotated with reported pIC50.
Bear in mind: pIC50 is minus log10 of a mol/L concentration; give just that figure.

COc1ccc([C@@H](O)c2cc(-c3ncnc4cc(N5CCOCC5)ccc34)c(F)cc2Cl)nn1 + CNC(=O)c1ccc(Nc2nc(OC3CCCC3)c3c(-c4ccc5nc(C)oc5c4)c[nH]c3n2)c(OC)c1
6.25
C#Cc1c(F)ccc2cc(O)cc(-c3ncc4c(N5CC6CCC(C5)N6)nc(OCC56CCCN5CC(F)C6)nc4c3F)c12 (stereo not given) + CNC(=O)c1ccc(Nc2nc(OC3CCCC3)c3c(-c4ccc5nc(C)oc5c4)c[nH]c3n2)c(OC)c1
5.29

Continue with the next compound.
Value lookup for pIC50; key = CCN1CCN(Cc2ccc(Nc3ncc(F)c(-c4cc(F)c5nc(C)n(C(C)C)c5c4)n3)nc2)CC1 + CNC(=O)c1ccc(Nc2nc(OC3CCCC3)c3c(-c4ccc5nc(C)oc5c4)c[nH]c3n2)c(OC)c1 7.07

----------
system: 168753-222-R-J1-PDC complex spheroid viability; assay: Anticancer human tumor 168753-222-R-J1-PDC cell line growth inhibition [CLK]; conditions: second compound 0.0316 µM; first compound 0.000949 µM; stronger effect = lower value;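 further: viability measured after seven days of drug exposure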;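 on viability, T/C: luminescence signal used as surrogate for viable cell amount; 100% = DMSO vehicle control wells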
Below: a set of entries, each annotated with reported viability, T/C.

CC(C)CC(NC(=O)C(Cc1ccccc1)NC(=O)c1cnccn1)B(O)O (centres undefined) + CN1CCN(c2cc(C(=O)Nc3cc4cc(-c5cnn(C)c5)ccc4cn3)ccn2)CC1
110%
CC(C)CC(NC(=O)C(Cc1ccccc1)NC(=O)c1cnccn1)B(O)O (centres undefined) + CNC(=O)c1ccc(Nc2nc(OC3CCCC3)c3c(-c4ccc5nc(C)oc5c4)c[nH]c3n2)c(OC)c1
98.6%
C=CC(=O)Nc1cc(Nc2nccc(-c3cn(C)c4ccccc34)n2)c(OC)cc1N(C)CCN(C)C + CNC(=O)c1ccc(Nc2nc(OC3CCCC3)c3c(-c4ccc5nc(C)oc5c4)c[nH]c3n2)c(OC)c1
122%

Value lookup for viability, T/C; key = C=CC(=O)Nc1cc(Nc2nccc(-c3cn(C)c4ccccc34)n2)c(OC)cc1N(C)CCN(C)C + CN1CCN(c2cc(C(=O)Nc3cc4cc(-c5cnn(C)c5)ccc4cn3)ccn2)CC1 117%
